These measurements were taken from the supplement of paper PMC11061612.

Test system: SNU-C1 (Colorectal Carcinoma);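 further: after 72 h of two-drug dosing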
assay-explanation: Bliss excess, mean over the matrix (fraction); higher = more synergy
# Bliss excess values compiled below
result-type: Bliss excess

• C=CCn1c(=O)c2cnc(Nc3ccc(N4CCN(C)CC4)cc3)nc2n1-c1cccc(C(C)(C)O)n1 [AZD1775] + Nc1ccn([C@@H]2O[C@H](CO)[C@@H](O)C2(F)F)c(=O)n1 [Gemcitabine] (first compound max 1 µM, partner max 0.3 µM) = -0.0308
• CS(=O)(=O)CCNCc1ccc(-c2ccc3ncnc(Nc4ccc(OCc5cccc(F)c5)c(Cl)c4)c3c2)o1 [Lapatinib] + NC1(c2ccc(-c3nc4ccn5c(=O)[nH]nc5c4cc3-c3ccccc3)cc2)CCC1 [MK-2206] (first compound max 10 µM, 7x7, partner max 10 µM) = -0.0184
• COc1cccc(OCCCN)c1-c1cc(Nc2cnc(C#N)cn2)n[nH]1 [Prexasertib] + C[C@@H]1COCCN1C2=NC(=NC(=C2)C3(CC3)[S@](=N)(=O)C)C4=C5C=CNC5=NC=C4 [AZD6738] (first compound max 1 µM, 7x7, partner max 10 µM) = -0.0078
• COc1nnc2ccc(N3CCC(c4ccc(OCCN5CCN(C)C(=O)[C@H]5C)cc4)CC3)nn12 [AZD5153] + C[C@@H]1COCCN1C2=NC(=NC(=C2)C3(CC3)[S@](=N)(=O)C)C4=C5C=CNC5=NC=C4 [AZD6738] (first compound max 1 µM, 7x7, partner max 10 µM) = -0.0404
• CN(CCO)CC[C@H](CSc1ccccc1)Nc1ccc(S(=O)(=O)NC(=O)c2ccc(N3CCC([C@@H](O)c4ccccc4-c4ccc(Cl)cc4)CC3)cc2)cc1S(=O)(=O)C(F)(F)F [AZD4320] + CS(=O)(=O)CCNCc1ccc(-c2ccc3ncnc(Nc4ccc(OCc5cccc(F)c5)c(Cl)c4)c3c2)o1 [Lapatinib] (first compound max 1 µM, 7x7, partner max 10 µM) = 0.0215
• Cc1c2c(nn1C)CSCc1cc(n(C)n1)CSc1cc(c3ccccc3c1)OCCCc1c(C(=O)O)n(C)c3c-2c(Cl)ccc13 [AZD5991] + CCN(CCO)CCCOc1ccc2c(Nc3cc(CC(=O)Nc4cccc(F)c4)[nH]n3)ncnc2c1 [AZD2811] (first compound max 1 µM, 7x7, partner max 1 µM) = -0.0256

---

System: NCI-H322M (Lung Adenocarcinoma)
assay-explanation: combination Emax (second highest fraction inhibited in the dose matrix, 72 h); higher = more inhibition; extreme values may be limits of the assay
result-type: combination Emax

- CC1(C)CCC(CN2CCN(c3ccc(C(=O)NS(=O)(=O)c4ccc(NCC5CCOCC5)c([N+](=O)[O-])c4)c(Oc4cnc5[nH]ccc5c4)c3)CC2)=C(c2ccc(Cl)cc2)C1 [Venetoclax] + CCN(CCO)CCCOc1ccc2c(Nc3cc(CC(=O)Nc4cccc(F)c4)[nH]n3)ncnc2c1 [AZD2811] (first compound max 1 µM, 7x7, partner max 1 µM): 0.188
- CC1(C)CCC(CN2CCN(c3ccc(C(=O)NS(=O)(=O)c4ccc(NCC5CCOCC5)c([N+](=O)[O-])c4)c(Oc4cnc5[nH]ccc5c4)c3)CC2)=C(c2ccc(Cl)cc2)C1 [Venetoclax] + Cn1cnc2c(F)c(Nc3ccc(Br)cc3Cl)c(C(=O)NOCCO)cc21 [Selumetinib] (first compound max 1 µM, 7x7, partner max 3 µM): 0.541
- CC1(C)CCC(CN2CCN(c3ccc(C(=O)NS(=O)(=O)c4ccc(NCC5CCOCC5)c([N+](=O)[O-])c4)c(Oc4cnc5[nH]ccc5c4)c3)CC2)=C(c2ccc(Cl)cc2)C1 [Venetoclax] + COc1cc(Nc2ncc3c(n2)-c2ccc(Cl)cc2C(c2c(F)cccc2OC)=NC3)ccc1C(=O)O [Alisertib] (first compound max 1 µM, 7x7, partner max 10 µM): 0.352
- COc1cccc(OCCCN)c1-c1cc(Nc2cnc(C#N)cn2)n[nH]1 [Prexasertib] + C[C@@H]1COCCN1C2=NC(=NC(=C2)C3(CC3)[S@](=N)(=O)C)C4=C5C=CNC5=NC=C4 [AZD6738] (first compound max 1 µM, 7x7, partner max 10 µM): 0.994
- COc1nnc2ccc(N3CCC(c4ccc(OCCN5CCN(C)C(=O)[C@H]5C)cc4)CC3)nn12 [AZD5153] + CC1(C)CCC(CN2CCN(c3ccc(C(=O)NS(=O)(=O)c4ccc(NCC5CCOCC5)c([N+](=O)[O-])c4)c(Oc4cnc5[nH]ccc5c4)c3)CC2)=C(c2ccc(Cl)cc2)C1 [Venetoclax] (first compound max 1 µM, 7x7, partner max 1 µM): 0.515
- C=CCn1c(=O)c2cnc(Nc3ccc(N4CCN(C)CC4)cc3)nc2n1-c1cccc(C(C)(C)O)n1 [AZD1775] + O=C(c1cc(Cc2n[nH]c(=O)c3ccccc23)ccc1F)N1CCN(C(=O)C2CC2)CC1 [Olaparib] (first compound max 1 µM, partner max 10 µM): 0.666
- CC1(C)CCC(CN2CCN(c3ccc(C(=O)NS(=O)(=O)c4ccc(NCC5CCOCC5)c([N+](=O)[O-])c4)c(Oc4cnc5[nH]ccc5c4)c3)CC2)=C(c2ccc(Cl)cc2)C1 [Venetoclax] + C=CCn1c(=O)c2cnc(Nc3ccc(N4CCN(C)CC4)cc3)nc2n1-c1cccc(C(C)(C)O)n1 [AZD1775] (first compound max 1 µM, partner max 1 µM): 0.862
- Cc1c2c(nn1C)CSCc1cc(n(C)n1)CSc1cc(c3ccccc3c1)OCCCc1c(C(=O)O)n(C)c3c-2c(Cl)ccc13 [AZD5991] + Cc1cc2ncnn2cc1Nc1ncc2c(n1)n(C1CCOCC1)c(=O)n2C [AZD7648] (first compound max 1 µM, 7x7, partner max 10 µM): 0.459

---

Test system: JHH-7 (Hepatocellular Carcinoma)
assay-explanation: combination Emax (second highest fraction inhibited in the dose matrix, 72 h); higher = more inhibition; extreme values may be limits of the assay
result-type: combination Emax

• C[C@@H](Nc1cc(F)cc(F)c1)c1cc(C(=O)N(C)C)cc2c(=O)cc(N3CCOCC3)oc12 [AZD8186] + CC(=O)c1c(C)c2cnc(Nc3ccc(N4CCNCC4)cn3)nc2n(C2CCCC2)c1=O [Palbociclib] (first compound max 10 µM, 7x7, partner max 10 µM) = 0.216
• COc1cccc2c1C(=O)c1c(O)c3c(c(O)c1C2=O)C[C@@](O)(C(=O)CO)C[C@@H]3O[C@H]1C[C@H](N)[C@H](O)[C@H](C)O1 [Doxorubicin] + Cc1cc2ncnn2cc1Nc1ncc2c(n1)n(C1CCOCC1)c(=O)n2C [AZD7648] (first compound max 1 µM, 7x7, partner max 10 µM) = 0.411
• CN(CCO)CC[C@H](CSc1ccccc1)Nc1ccc(S(=O)(=O)NC(=O)c2ccc(N3CCC([C@@H](O)c4ccccc4-c4ccc(Cl)cc4)CC3)cc2)cc1S(=O)(=O)C(F)(F)F [AZD4320] + CCN(CCO)CCCOc1ccc2c(Nc3cc(CC(=O)Nc4cccc(F)c4)[nH]n3)ncnc2c1 [AZD2811] (first compound max 1 µM, 7x7, partner max 1 µM) = 0.538
• COc1nnc2ccc(N3CCC(c4ccc(OCCN5CCN(C)C(=O)[C@H]5C)cc4)CC3)nn12 [AZD5153] + CCN(CCO)CCCOc1ccc2c(Nc3cc(CC(=O)Nc4cccc(F)c4)[nH]n3)ncnc2c1 [AZD2811] (first compound max 1 µM, 7x7, partner max 1 µM) = 0.361

---

System: KINGS-1 (Low Grade Glioma)
assay-explanation: combination Emax (second highest fraction inhibited in the dose matrix, 72 h); higher = more inhibition; extreme values may be limits of the assay
result-type: combination Emax

• C=CCn1c(=O)c2cnc(Nc3ccc(N4CCN(C)CC4)cc3)nc2n1-c1cccc(C(C)(C)O)n1 [AZD1775] + C1CN(CCC1(C(=O)N[C@@H](CCO)C2=CC=C(C=C2)Cl)N)C3=NC=NC4=C3C=CN4 [Capivasertib] (first compound max 3 µM, partner max 3 µM) = 0.473
• CN(C)CCCOc1ccc(-c2ccc3ncc4c(c3c2)n(C2CCOCC2)c(=O)n4C)cn1 [AZD0156] + C[C@@H]1COCCN1C2=NC(=NC(=C2)C3(CC3)[S@](=N)(=O)C)C4=C5C=CNC5=NC=C4 [AZD6738] (first compound max 1 µM, 7x7, partner max 10 µM) = 0.25
• NC1(C(=O)N[C@@H](CCO)c2ccc(Cl)cc2)CCN(c2ncnc3[nH]ccc23)CC1 [Capivasertib] + C[C@@H]1COCCN1C2=NC(=NC(=C2)C3(CC3)[S@](=N)(=O)C)C4=C5C=CNC5=NC=C4 [AZD6738] (first compound max 10 µM, 7x7, partner max 10 µM) = 0.425
• Cc1c2c(nn1C)CSCc1cc(n(C)n1)CSc1cc(c3ccccc3c1)OCCCc1c(C(=O)O)n(C)c3c-2c(Cl)ccc13 [AZD5991] + Nc1ccn([C@@H]2O[C@H](CO)[C@@H](O)C2(F)F)c(=O)n1 [Gemcitabine] (first compound max 1 µM, 7x7, partner max 0.3 µM) = 0.195
